Each recorded value in this set is attributed to ChEMBL document CHEMBL3525930.

assay: Total Cmax in human; type: ADME, organism-based; conditions: in vivo
Observable: Cmax (nM)
One number for each entry, in nM.

Request: Cmax for C[C@@H]1CC[C@H]2[C@@H](C)C(=O)O[C@@H]3O[C@@]4(C)CC[C@@H]1[C@]32OO4 ?
Response: 1600

###

tested on: MDR1; assay: Induction of MDR1 mRNA expression in human hepatocytes at 10 uM after 72 hrs by RT-PCR analysis relative to vehicle-treated control; format: ADME, cell-based, Hepatocyte; settings: read-out: FC
Observable: fold induction at 72 h, 10 µM

Request: What does the record list as fold induction at 72 h, 10 µM for C[C@H]1[C@@H](O)O[C@@H]2O[C@@]3(C)CC[C@H]4[C@H](C)CC[C@@H]1[C@@]24OO3 ?
Response: 1

###

target: Cytochrome P450 2B6 (Homo sapiens, UniProt P20813); test: Inhibition of recombinant CYP2B6 (unknown origin) incubated for 3 mins prior to NADPH addition measured after 10 mins by LC-MS analysis; format: ADME
Observable: IC50

Request: I have this molecule here, C[C@H]1[C@@H](O)O[C@@H]2O[C@@]3(C)CC[C@H]4[C@H](C)CC[C@@H]1[C@@]24OO3 , and I need its recorded IC50.
Response: > 125 µM

###

test system: CYP2A6; assay: Induction of CYP2A6 mRNA expression in human hepatocytes at 10 uM after 72 hrs by RT-PCR analysis relative to vehicle-treated control; type: ADME, cell-based, Hepatocyte; conditions: read-out: FC
Observable: fold induction at 72 h, 10 µM
Answers are plain numbers.

Request: Missing value: fold induction at 72 h, 10 µM, CYP2A6, entry C[C@H]1[C@@H](O)O[C@@H]2O[C@@]3(C)CC[C@H]4[C@H](C)CC[C@@H]1[C@@]24OO3 . Fill in?
Response: 2.2

###

system: CYP2C9; assay: Induction of CYP2C9 mRNA expression in human hepatocytes at 10 uM after 72 hrs by RT-PCR analysis relative to vehicle-treated control; type: ADME, cell-based, Hepatocyte; details: read-out: FC
Observable: fold induction at 72 h, 10 µM

Request: GET /values?readout=fold induction at 72 h, 10 µM&system=CYP2C9&item= C[C@H]1[C@@H](O)O[C@@H]2O[C@@]3(C)CC[C@H]4[C@H](C)CC[C@@H]1[C@@]24OO3 [ARTENIMOL]
Response: 1

###

biological target: CYP3A4 (Homo sapiens, UniProt P08684); assay: Induction of CYP3A4 in human hepatocytes at 10 uM after 72 hrs relative to vehicle-treated control
Sequence (P08684 whole entry): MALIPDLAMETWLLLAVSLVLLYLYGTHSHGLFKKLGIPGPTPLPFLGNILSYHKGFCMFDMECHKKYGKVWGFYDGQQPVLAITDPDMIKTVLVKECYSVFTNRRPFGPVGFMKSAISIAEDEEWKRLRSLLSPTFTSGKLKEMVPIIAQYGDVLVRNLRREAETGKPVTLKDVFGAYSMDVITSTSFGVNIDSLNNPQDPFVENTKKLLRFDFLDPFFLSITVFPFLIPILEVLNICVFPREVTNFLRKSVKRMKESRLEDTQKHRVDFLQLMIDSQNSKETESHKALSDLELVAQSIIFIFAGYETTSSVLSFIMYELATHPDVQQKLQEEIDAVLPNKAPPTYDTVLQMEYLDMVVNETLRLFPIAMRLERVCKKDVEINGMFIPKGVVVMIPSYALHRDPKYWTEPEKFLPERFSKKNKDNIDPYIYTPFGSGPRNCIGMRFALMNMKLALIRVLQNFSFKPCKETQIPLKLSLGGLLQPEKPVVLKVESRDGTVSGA
Observable: fold induction at 72 h, 10 µM

Request: Recorded fold induction at 72 h, 10 µM of C[C@H]1[C@@H](O)O[C@@H]2O[C@@]3(C)CC[C@H]4[C@H](C)CC[C@@H]1[C@@]24OO3 , please.
Response: 2.1

###

system: CYP2C8; assay: Induction of CYP2C8 mRNA expression in human hepatocytes at 10 uM after 72 hrs by RT-PCR analysis relative to vehicle-treated control; assay type: ADME, cell-based, Hepatocyte; conditions: read-out: FC
Observable: fold induction at 72 h, 10 µM

Request: Please look up its fold induction at 72 h, 10 µM: C[C@H]1[C@@H](O)O[C@@H]2O[C@@]3(C)CC[C@H]4[C@H](C)CC[C@@H]1[C@@]24OO3
Response: 0.8

###

biological target: Cytochrome P450 3A4 (Homo sapiens, UniProt P08684); experiment: Inhibition of CYP3A4 in human liver microsomes incubated for 3 mins prior to NADPH addition measured after 3 mins by LC-MS analysis; type: ADME
Sequence (P08684 whole entry): as the sequence (P08684 whole entry) above
Observable: IC50

Request: Could you share what IC50 was measured for C[C@H]1[C@@H](O)O[C@@H]2O[C@@]3(C)CC[C@H]4[C@H](C)CC[C@@H]1[C@@]24OO3 , tested on Cytochrome P450 3A4 (Homo sapiens, UniProt P08684)?
Response: > 125 µM

###

Molecular target: Cytochrome P450 2B6 (Homo sapiens)
Sequence (P20813 whole entry): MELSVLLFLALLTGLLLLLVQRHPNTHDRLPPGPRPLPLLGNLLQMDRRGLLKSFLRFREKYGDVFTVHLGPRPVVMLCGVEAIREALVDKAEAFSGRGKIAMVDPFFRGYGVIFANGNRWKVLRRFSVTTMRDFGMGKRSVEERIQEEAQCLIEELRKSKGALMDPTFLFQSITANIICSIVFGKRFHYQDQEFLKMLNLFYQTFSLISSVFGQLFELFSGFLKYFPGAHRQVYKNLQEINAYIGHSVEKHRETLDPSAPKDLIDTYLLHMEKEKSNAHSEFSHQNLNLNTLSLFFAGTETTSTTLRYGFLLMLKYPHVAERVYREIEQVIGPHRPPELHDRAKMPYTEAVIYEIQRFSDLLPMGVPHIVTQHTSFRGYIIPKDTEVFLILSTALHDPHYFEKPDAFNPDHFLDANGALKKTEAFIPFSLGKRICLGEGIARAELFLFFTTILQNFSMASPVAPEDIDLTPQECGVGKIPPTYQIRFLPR
Test: Inhibition of CYP2B6 in human liver microsomes incubated for 3 mins prior to NADPH addition measured after 10 mins by LC-MS analysis
Assay type: ADME
Observable: IC50

Request: Short answer please: IC50, Cytochrome P450 2B6 (Homo sapiens), entry C[C@H]1[C@@H](O)O[C@@H]2O[C@@]3(C)CC[C@H]4[C@H](C)CC[C@@H]1[C@@]24OO3
Response: > 125 µM

###

tested on: MRP1; assay: Induction of MRP1 mRNA expression in human hepatocytes at 10 uM after 72 hrs by RT-PCR analysis relative to vehicle-treated control; type: cell-based, Hepatocyte; details: read-out: FC
Observable: fold induction at 72 h, 10 µM
Give bare numbers.

Request: Entry under review: C[C@H]1[C@@H](O)O[C@@H]2O[C@@]3(C)CC[C@H]4[C@H](C)CC[C@@H]1[C@@]24OO3 . Reported fold induction at 72 h, 10 µM?
Response: 0.8

###

system: CYP2C19; test: Induction of CYP2C19 mRNA expression in human hepatocytes at 10 uM after 72 hrs by RT-PCR analysis relative to vehicle-treated control; type: ADME, cell-based, Hepatocyte; details: read-out: FC
Observable: fold induction at 72 h, 10 µM
One number for each entry.

Request: Fill in the blank: the reported fold induction at 72 h, 10 µM of C[C@H]1[C@@H](O)O[C@@H]2O[C@@]3(C)CC[C@H]4[C@H](C)CC[C@@H]1[C@@]24OO3 is ____.
Response: 1.3

###

target: CYP2C9 (Homo sapiens); assay: Induction of CYP2C9 in human hepatocytes at 10 uM after 72 hrs relative to vehicle-treated control; format: ADME, cell-based, Hepatocyte; settings: read-out: FC
Sequence (P11712 whole entry): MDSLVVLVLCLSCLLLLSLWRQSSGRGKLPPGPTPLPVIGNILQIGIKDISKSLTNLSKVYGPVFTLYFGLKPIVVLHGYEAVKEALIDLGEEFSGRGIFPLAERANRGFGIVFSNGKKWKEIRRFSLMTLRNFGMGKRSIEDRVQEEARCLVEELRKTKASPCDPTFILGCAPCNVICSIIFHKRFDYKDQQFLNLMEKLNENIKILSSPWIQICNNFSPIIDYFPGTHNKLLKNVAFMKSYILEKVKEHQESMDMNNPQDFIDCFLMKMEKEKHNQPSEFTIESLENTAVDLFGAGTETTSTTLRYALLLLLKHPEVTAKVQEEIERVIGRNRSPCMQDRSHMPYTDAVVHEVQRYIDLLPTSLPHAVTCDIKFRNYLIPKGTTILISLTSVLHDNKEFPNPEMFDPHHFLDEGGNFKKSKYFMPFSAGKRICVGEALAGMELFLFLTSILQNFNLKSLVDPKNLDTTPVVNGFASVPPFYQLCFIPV
Observable: fold induction at 72 h, 10 µM
One number for each entry.

Request: Returns the measured fold induction at 72 h, 10 µM for the input molecule. Input: C[C@H]1[C@@H](O)O[C@@H]2O[C@@]3(C)CC[C@H]4[C@H](C)CC[C@@H]1[C@@]24OO3
Response: 1.2

###

target: Nuclear receptor subfamily 1 group I member 2 (Homo sapiens, UniProt O75469); experiment: Activation of human PXR expressed in human LS174T cells
Sequence (O75469 whole entry): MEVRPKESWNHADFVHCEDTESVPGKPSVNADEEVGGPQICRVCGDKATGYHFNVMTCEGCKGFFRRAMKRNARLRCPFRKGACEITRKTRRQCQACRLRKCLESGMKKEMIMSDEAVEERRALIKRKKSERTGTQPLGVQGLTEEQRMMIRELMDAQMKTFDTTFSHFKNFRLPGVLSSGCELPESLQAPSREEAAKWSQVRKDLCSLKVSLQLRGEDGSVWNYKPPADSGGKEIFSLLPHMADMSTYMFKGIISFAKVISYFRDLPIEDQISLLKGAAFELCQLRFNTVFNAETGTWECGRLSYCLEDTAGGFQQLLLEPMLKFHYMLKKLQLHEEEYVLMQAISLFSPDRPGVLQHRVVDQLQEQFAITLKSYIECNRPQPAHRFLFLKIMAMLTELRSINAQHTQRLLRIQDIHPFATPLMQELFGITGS
Observable: pEC50
Numbers only, as −log10 of the molar value.

Request: pEC50 of C[C@@H]1CC[C@H]2[C@@H](C)C(=O)O[C@@H]3O[C@@]4(C)CC[C@@H]1[C@]32OO4 [ARTEMISININ] on Nuclear receptor subfamily 1 group I member 2 (Homo sapiens, UniProt O75469)?
Response: 4.52

###

experiment: Chemical stability of the compound in human hepatocyte culture medium assessed as compound remaining at 1 to 50 uM after 24 hrs; type: physicochemical; conditions: read-out: Stability
Observable: remaining at 24 h, up to 50 µM (%)
One number for each entry, in %.

{"columns": ["Compound Structure", "remaining at 24 h, up to 50 µM (%)"],
 "data": [
  ["C[C@H]1[C@@H](O)O[C@@H]2O[C@@]3(C)CC[C@H]4[C@H](C)CC[C@@H]1[C@@]24OO3", 8]
]}

Consider the additional compound presented here.
Request: Fill blank: measured remaining at 24 h, up to 50 µM of the compound C[C@@H]1CC[C@H]2[C@@H](C)C(=O)O[C@@H]3O[C@@]4(C)CC[C@@H]1[C@]32OO4 is ____.
Response: 38

###

system: CYP3A5; assay: Induction of CYP3A5 mRNA expression in human hepatocytes at 10 uM after 72 hrs by RT-PCR analysis relative to vehicle-treated control
Observable: fold induction at 72 h, 10 µM

Request: So what's the measured fold induction at 72 h, 10 µM for this one? C[C@H]1[C@@H](O)O[C@@H]2O[C@@]3(C)CC[C@H]4[C@H](C)CC[C@@H]1[C@@]24OO3
Response: 1

###

target: Cytochrome P450 3A4 (Homo sapiens, UniProt P08684); assay: Inhibition of recombinant CYP3A4 (unknown origin) incubated for 3 mins prior to NADPH addition measured after 3 mins by LC-MS analysis; assay type: ADME
Observable: IC50

Request: Would you mind telling me what IC50 value was observed for C[C@H]1[C@@H](O)O[C@@H]2O[C@@]3(C)CC[C@H]4[C@H](C)CC[C@@H]1[C@@]24OO3 ?
Response: > 125 µM
